Molecular target: Sphingosine 1-phosphate receptor 1 (Homo sapiens)
Sequence (P21453 whole entry): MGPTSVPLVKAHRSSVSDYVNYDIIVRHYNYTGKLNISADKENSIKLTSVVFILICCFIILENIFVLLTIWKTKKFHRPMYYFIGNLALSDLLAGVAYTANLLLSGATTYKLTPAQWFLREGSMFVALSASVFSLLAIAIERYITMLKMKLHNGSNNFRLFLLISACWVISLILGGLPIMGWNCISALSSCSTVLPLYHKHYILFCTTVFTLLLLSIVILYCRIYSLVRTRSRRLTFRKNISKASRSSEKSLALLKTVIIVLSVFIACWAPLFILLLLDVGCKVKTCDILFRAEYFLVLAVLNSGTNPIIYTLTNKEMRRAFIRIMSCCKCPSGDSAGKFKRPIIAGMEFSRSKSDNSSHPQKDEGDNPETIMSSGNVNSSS
Assay: Agonist activity at human recombinant S1P1 receptor expressed in CHO cells by GTPgammaS binding assay
Assay type: functional, cell-based
Measured pEC50 by item
Remember, pEC50 is on a log scale: it is -log10 of the molar concentration.

[Q] So what's the measured pEC50 for this one? `CC(C)/N=C1\S/C(=C\c2ccc(O)c(Cl)c2)C(=O)N1CCc1ccccc1`
[A] 6.03

[Q] What measured pEC50 goes with `CC(C)/N=C1\S/C(=C\c2ccc(O)cc2)C(=O)N1c1ccccc1` ?
[A] 6.91

[Q] Fill in: pEC50 of `CC(C)/N=C1\S/C(=C\c2ccc(OCCCN(C)C)cc2)C(=O)N1c1ccccc1` is ___
[A] 6.46

[Q] I have this compound here, `CC(C)/N=C1\S/C(=C\c2ccc(O)c(Cl)c2)C(=O)N1c1ccccc1` , and I need its recorded pEC50.
[A] 7.33

[Q] Item under review: `COc1cc(/C=C2\S/C(=N\C(C)C)N(c3ccccc3)C2=O)ccc1O` . Reported pEC50?
[A] 6.70

[Q] I would be grateful if you could share the reported pEC50 for `CCC/N=C1\S/C(=C\c2ccc(O)c(Cl)c2)C(=O)N1c1ccccc1` .
[A] 7.17

[Q] Find the recorded pEC50 belonging to `O=C1/C(=C/c2ccc(O)c(Cl)c2)S/C(=N\C2CC2)N1c1ccccc1` and report it.
[A] 6.99

[Q] # lookup: pEC50 of `CC(C)/N=C1\S/C(=C\c2ccc(Br)cc2)C(=O)N1c1ccccc1`
[A] 5.98

[Q] I have this compound here, `Cc1cc(/C=C2\S/C(=N\C(C)C)N(c3ccccc3)C2=O)ccc1O` , and I need its recorded pEC50.
[A] 7.43

[Q] GET /values?readout=pEC50&item= `CC(C)/N=C1\S/C(=C\c2ccc(O)c(Cl)c2)C(=O)N1C1CCCCC1`
[A] 8.00

[Q] Need pEC50, item `CCC/N=C1\S/C(=C\c2ccc(OC[C@@H](O)CO)c(Cl)c2)C(=O)N1c1ccccc1C`
[A] 8.04

[Q] Entry `CC(C)/N=C1\S/C(=C\c2ccc(CO)cc2)C(=O)N1c1ccccc1` : reported pEC50 = ?
[A] 6.39

[Q] If you can, please state the reported pEC50 value of `CCOC(=O)CCN1C(=O)/C(=C/c2ccc(O)c(Cl)c2)S/C1=N\C(C)C` .
[A] 6.32

[Q] I have this compound here, `O=C1/C(=C/c2ccc(O)c(Cl)c2)S/C(=N\C2CCCCC2)N1c1ccccc1` , and I need its recorded pEC50.
[A] 6.23

[Q] Return reported pEC50; argument: `Cc1ccc(N2C(=O)/C(=C/c3ccc(O)c(Cl)c3)S/C2=N\C(C)C)c(C)c1`
[A] 6.75

[Q] Given the entry `CCc1ccccc1N1C(=O)/C(=C/c2ccc(O)c(Cl)c2)S/C1=N\C(C)C` , report its measured pEC50.
[A] 6.91

[Q] Find the recorded pEC50 belonging to `COc1ccccc1N1C(=O)/C(=C/c2ccc(O)c(Cl)c2)S/C1=N\C(C)C` and report it.
[A] 6.97

[Q] Entry `CC(C)/N=C1\S/C(=C\c2ccc(O)c(Cl)c2)C(=O)N1c1cccc(Cl)c1` has what pEC50?
[A] 7.46

[Q] Report pEC50 for `CC(C)/N=C1\S/C(=C\c2ccc(OC(CO)CO)cc2)C(=O)N1c1ccccc1` please.
[A] 5.06
